test system: HT29; assay: In vitro proliferation, larger cancer cell line panel; details: Homo sapiens, HT-29, read-out: in vitro proliferation IC50
pIC50: −log10 of the molar value.
property_label: pIC50

> print(dat)
                                   compound  subject.of.test  property.label  assay.result
1  CCCCC(=O)O[C@]1(C(=O)CO)CC[C@H]2[C@@H]3CCC4=CC(=O)CC[C@]4(C)[C@H]3CC[C@@]21C [CB-03-05, cortexolone 17α-valerate]             HT29           pIC50          3.28
